Values from PubChem BioAssay (NCI)

system: SF-268 CNS; experiment: NCI tumour cell line growth inhibition, 48 h
parameter measured: GI50

Here's what some known entries look like.
1. C=C1C(=O)O[C@H]2[C@H]1CC/C(Cn1cc(-c3cc(C(F)(F)F)cc(C(F)(F)F)c3)nn1)=C\CC[C@@]1(C)O[C@@H]21: 1.08 µM
2. CCc1c(C#N)c(S[C@@H](C(N)=O)c2ccccc2)nc(N(C)C)c1C#N: 5.07 µM
3. COC(=O)c1c2c(c(C)[n+]([O-])c1C)C(=O)C=C(NCc1ccc(F)c(Cl)c1)C2=O: 1.01 µM
4. NC(N)=N/N=C\c1cccc(OCc2ccccc2)c1: 10.9 µM

Field: next compound
## Input What measured GI50 goes with COc1cc(C)c(Cl)cc1C1=NN(c2ccc(S(N)(=O)=O)cc2)C(/C=C/c2ccccc2)C1 (stereo not given) ?
## Output 4.4 µM

###

Entries and their TGI values follow.
tested on: UACC-62 melanoma; assay: NCI tumour cell line growth inhibition, 48 h

Here's what some known entries look like.
1) O=C1NC(O)C(c2c[nH]c3ccccc23)=C1c1c[nH]c2ccccc12 (centres undefined): > 25 µM
2) Cc1ccc(NN=NCCCCN)cc1: > 100 µM
3) O=C1C(=O)c2ccccc2C(O)=C1CC=C(Br)Br: 35.9 µM

## Input What measured TGI goes with O=C(c1ccco1)c1nc2cc(Cl)ccc2[n+]([O-])c1C(F)(F)F ?
## Output > 100 µM

## Input What measured TGI goes with C/C(=N/Nc1nc2ccccc2n1C)c1ccccn1 ?
## Output 0.793 µM

###

test system: HCT-15 colon; assay: NCI tumour cell line growth inhibition, 48 h
Entries and their TGI values follow.

1. O=C(COc1ccc(OCC(=O)N2C(=O)CSC2=Nc2ccccc2)cc1)N1C(=O)CSC1=Nc1ccccc1: > 100 µM
2. Cc1nc2sc3ccccc3n2c(=O)c1N=Nc1ccc(Br)cc1: > 100 µM
3. CC(C)c1ccc(C2C3=C(N=C4SCC(=O)N42)C(=O)c2ccccc23)cc1 (centres undefined): > 100 µM
4. Cc1sc2nc(-c3ccc(Cl)c([N+](=O)[O-])c3)c(/C=N/N=C(N)N)n2c1C: 2.65 µM
5. Cc1cc2nc3c4cc(N)ccc4n(CCN(C)C)c3nc2cc1C: 10.2 µM
6. COc1ccc(C(=O)Cn2c(C(=O)/C=C/c3ccco3)nc3ccccc32)cc1: > 100 µM
7. c1ccc(N=C(Nc2ccccc2)N2CCCCC2)cc1: > 100 µM
8. COc1ccc(/C=C/C(=O)/C=C/c2ccc(OC)cc2)cc1: > 100 µM

## Input What measured TGI goes with O=C1C(N2CCNCC2)=C(Cl)C(=O)c2ncccc21 ?
## Output > 10 µM

## Input What measured TGI goes with CCCCc1c2c(nc3c1CCCC3O)CCCC2 (centres undefined) ?
## Output > 100 µM

## Input What measured TGI goes with CC(=O)[CH-]C(=O)c1ccccc1.CC(=O)[CH-]C(=O)c1ccccc1.CC1(C)C2CCC1(C)C([O-])C2.CC1(C)C2CCC1(C)C([O-])C2.[Ti+4] ?
## Output > 100 µM

## Input What measured TGI goes with CC(C)(C)N1C(C(=O)c2ccccc2)C1c1ccccc1 (centres undefined) ?
## Output > 100 µM

## Input What measured TGI goes with O=C(CSc1nc2ccccc2s1)c1sc2sc3ccccc3[n+]2c1[O-] ?
## Output > 100 µM

###

test system: SK-MEL-2 melanoma; test: NCI tumour cell line growth inhibition, 48 h
Entries and their TGI values follow.

Here's what some known entries look like.
1. O=c1nc2n(-c3ccc(Cl)cc3)c3ccc([N+](=O)[O-])cc3cc-2c(=O)[nH]1: > 100 µM
2. CC[C@H](Nc1nc(NCc2cnc(C)cc2C)c2ncn(C(C)C)c2n1)[C@@H](C)O: 3.01 µM

Field: next compound
## Input What measured TGI goes with COC1CC(OC2C(C)OC(OC3C(C)OC(OC4C(O)CC(O[C@H]5CC[C@@]6(C)C(=CC[C@]7(O)[C@@H]6C[C@@H](OC(=O)/C=C/c6ccccc6)[C@@]6(C)[C@]7(O)CC[C@@]6(O)C(C)=O)C5)OC4C)CC3OC)CC2OC)OC(C)C1O (stereo partly drawn) ?
## Output > 6.25 µM

###

system: HCC-2998 colon; test: NCI tumour cell line growth inhibition, 48 h; in the data active = GI50 below about 0.43 µM; inactive = the rest
Mark one answer only. Choices: active, inactive

Some solved cases for reference:
1) CC1=C2C[C@H]3[C@@H](CC[C@@H]4CC(NS(C)(=O)=O)CC[C@@]43C)[C@@H]2CC[C@@]2(C1)O[C@@H]1C[C@H](C)CN[C@H]1[C@H]2C (some centres undefined): inactive
2) O=C(Nc1cccc(Cl)c1)c1ccc(NC2=C(Cl)C(=O)N(Cc3ccccc3)C2=O)cc1: inactive
3) CC[C@H](Nc1nc(NCc2cnc(C)cc2C)c2ncn(C(C)C)c2n1)[C@@H](C)O: active

Let us examine a further case.
## Input Please indicate how the test categorized CC(C)[C@H](CO)Nc1nc(Nc2ccc(C(=O)NCCNS(=O)(=O)c3cccc4c(N(C)C)cccc34)c(Cl)c2)c2ncn(C(C)C)c2n1 .
## Output inactive

###

Entries and their GI50 values follow.
test system: SK-MEL-28 melanoma; assay: NCI tumour cell line growth inhibition, 48 h

Here's what some known entries look like.
1. C=C(CN1C(=O)[C@H]2CCCN2C(=O)c2ccccc21)c1ccc(C(=O)O)cc1: > 100 µM
2. C/C(=N\Nc1cc(C)c2cc(C)ccc2n1)c1ccccn1: 0.135 µM
3. COc1cc(C)c(Cl)cc1C1=NN(c2ccc(S(N)(=O)=O)cc2)C(/C=C/c2ccccc2)C1 (centres undefined): 3.1 µM
4. CN(C)c1ccc([O][Bi]([Cl])[Cl])cc1: > 100 µM
5. COc1cc(-c2nn(-c3cccc(NC(=O)Nc4cc(C(F)(F)F)cc(C(F)(F)F)c4)c3)cc2-c2ccncc2)ccc1Cl: 0.758 µM
6. O=C(c1ccco1)c1nc2cc(Cl)ccc2[n+]([O-])c1C(F)(F)F: 90.1 µM
7. CC(C)[C@H](CO)Nc1nc(Nc2ccc(C(=O)NCCNS(=O)(=O)c3cccc4c(N(C)C)cccc34)c(Cl)c2)c2ncn(C(C)C)c2n1: 2.9 µM
8. O=C1C(Cl)=C(Nc2cccc(Cl)c2)C(=O)N1Cc1ccccc1Cl: 9.95 µM

Field: next compound
## Input What measured GI50 goes with O=C1CCCCCCCC/C=C\CC(c2ccco2)O1 (centres undefined) ?
## Output 31.1 µM

###

test system: HCT-15 colon; assay: NCI tumour cell line growth inhibition, 48 h
Entries and their log10 of TGI values follow.
The base-10 logarithm of TGI, taken with TGI in µM, is what appears here.

Here's what some known entries look like.
1) CC[C@H](Nc1nc(NCc2cnc(C)cc2C)c2ncn(C(C)C)c2n1)[C@@H](C)O: 0.69
2) CC1=C2C[C@H]3[C@@H](CC[C@@H]4CC(NS(C)(=O)=O)CC[C@@]43C)[C@@H]2CC[C@@]2(C1)O[C@@H]1C[C@H](C)CN[C@H]1[C@H]2C (stereo not given in full): 1.33
3) CC(C)c1cc(CN(C)C)c(O)c(C(C)(C)C)c1: 1.80
4) CCOC(=O)N1CCc2cc(OC)c(OC)c3c2c1cc1cc(OC)c(OC)cc13: 1.58
5) COc1ccc(-c2c(=O)[nH]n3c(=S)nc(-c4ccccc4)[nH]c23)cc1OC: 1.62
6) O=c1ccn(C2OC(CO/N=C/c3ccc(O)c(O)c3O)C(O)C2O)c(=O)[nH]1 (stereo not given): 1.70
7) CCCCCCCCCCCCCC(=O)CC(=O)c1c(O)cccc1O: 1.77

## Input What measured log10 of TGI goes with CCN1CCN(c2ccc(Nc3ccnc4ccc5c(nnn5C)c34)cc2)CC1 ?
## Output 1.21

###

system: CCRF-CEM leukemia; assay: NCI tumour cell line growth inhibition, 48 h
parameter measured: TGI

1. CN(CCCCN1CCCC1)CCCN(C)C(=O)Cc1ccc(Cl)c(Cl)c1: 20.9 µM
2. Nc1ccc2nc(Nc3ccc(F)cc3)cnc2c1: > 100 µM
3. CC(C)c1ccc(C2C3=C(N=C4SCC(=O)N42)C(=O)c2ccccc23)cc1 (configuration not stated): > 100 µM
4. N=C(c1ccc2ccccc2c1)c1ccccc1Cc1ccccc1: 82.8 µM
5. O=C(Nc1cccc(Cl)c1)c1ccc(NC2=C(Cl)C(=O)N(Cc3ccccc3)C2=O)cc1: 1.44 µM
6. CCOC(=O)c1[nH]c(Br)c(-c2ccc(Br)cc2)c1Br: 1.11 µM

## Input What measured TGI goes with O=C1NC(=O)C2C(=O)NC(=O)C1C2(c1ccccc1)c1cc[nH]c1 (configuration not stated) ?
## Output > 100 µM

## Input What measured TGI goes with CN(C(=O)C12C3C4C1C1C4(C(=O)C45C6C7C4C4C5C6C74C)C3C12C)C(C)(C)C (configuration not stated) ?
## Output > 100 µM

## Input What measured TGI goes with COC(=O)/C([Se]c1c(C)cc(C)cc1C)=C(\[Se]c1c(C)cc(C)cc1C)C(=O)OC ?
## Output > 100 µM
